Documented inhibition across a set of molecules
# procedure.summary: H1N1 influenza NS1A inhibitors, functional cell based assay (AID 504329)
# condition.info: percent inhibition, at 12.5 µM, active compounds read high
Hit rate of the full screen: of about 340,000 compounds, about 1,000 (0.29%) were called active. A selection follows. Results with a measured potency or affinity are listed apart.

Look over these answered cases.
[
  {
    "molecule": "CC(=O)C1=C(c2ccccc2)OC(N)=C(C#N)C1c1ccccc1C (stereo not given)",
    "inhibition": "7.47% (inactive)"
  },
  {
    "molecule": "Cc1c(N=C2C(=O)Nc3ccccc32)c(=O)n(-c2ccccc2)n1C",
    "inhibition": "11% (inactive)"
  },
  {
    "molecule": "O=C(Cn1ccccc1=O)NCc1ccc(F)cc1",
    "inhibition": "-15.8% (inactive)"
  },
  {
    "molecule": "CCN(CC)c1nc(-c2ccccn2)nc(-c2ccccc2)c1C#N",
    "inhibition": "2.62% (inactive)"
  }
]

Give the measured inhibition of O=C1[C@H]2[C@@H](C(=O)N1c1cccc3ccccc13)C1(C(=O)c3ccccc3C1=O)N1CCC[C@@H]21 .
-0.49% (inactive)

Given the molecule COc1ccc(OC)c(C2=NS(=O)(=O)N(C)C(C(=O)NCc3ccco3)=C2)c1 , what is its reported inhibition?
-7.9% (inactive)

Would you mind telling me what inhibition value was observed for Cc1cccc(N=Nc2ccc(O)c3ncccc23)c1 ?
0.95% (inactive)

Return reported inhibition; argument: CC(=O)Nc1nnc(SCC(=O)N2CCc3ccccc32)s1
-6.4% (inactive)

Form field: reported inhibition of COc1ccc(NS(=O)(=O)c2ccc3oc(SCc4ccc(F)cc4)nc3c2)cc1
-1.81% (inactive)

Tell me the measured inhibition of O=C(N/N=C/c1ccccc1[N+](=O)[O-])c1cccs1 , please.
-0.41% (inactive)

Form field: reported inhibition of COc1ccc(CCC(=O)NCCS(=O)(=O)N2CCN(c3ccc(OC)cc3)CC2)cc1
1.44% (inactive)

Given the entry O=C1c2cccc([N+](=O)[O-])c2C(=O)N1C1CCCCC1 , report its measured inhibition.
-11.8% (inactive)

So what's the measured inhibition for this one? COc1ccc(N=Nc2ccc(O)c3ncccc23)cc1
2.93% (inactive)

----------
# procedure.summary: H1N1 influenza NS1A inhibitors, functional cell based assay (AID 504329)
# condition.info: percent inhibition, at 12.5 µM, active compounds read high
In all, about 340,000 compounds went through this assay and about 1,000 (0.29%) were called active. Only a sample is shown. Results with a measured potency or affinity are listed apart.
metric.name: inhibition (%)
Your answer is read as %, so omit the unit and give the number.

Would you please look over these solved cases?
[
  {
    "molecule": "Cn1nc([N+](=O)[O-])c(C(C#N)c2ccccn2)c(Cl)c1=O (stereo not given)",
    "unit.of.measurement": "%",
    "inhibition": 7.2
  },
  {
    "molecule": "CC(=O)c1ccc2c(c1)C1C(Cl)C(Sc3ccccc3[N+](=O)[O-])CC1C(C(=O)O)N2 (stereo not given)",
    "unit.of.measurement": "%",
    "inhibition": 27.9
  },
  {
    "molecule": "CCCn1nc([N+](=O)[O-])c(C(C#N)c2nc3ccccc3o2)c(Cl)c1=O (stereo not given)",
    "unit.of.measurement": "%",
    "inhibition": 17.6
  },
  {
    "molecule": "CC(C)c1nc(SCC(=O)N2CCCCCC2)c2c(=O)n(C)c(=O)n(C)c2n1",
    "unit.of.measurement": "%",
    "inhibition": -2.22
  }
]

Next up:
Need inhibition of CCOc1ccc(N2CC(C(=O)N3CCCc4ccccc43)CC2=O)cc1 (stereo not given) , thanks.
0.32
